# SYSTEM NAME: Genome polyprotein (dengue virus type 2)
# Sequence (P29990 1346-1475 limits assumed): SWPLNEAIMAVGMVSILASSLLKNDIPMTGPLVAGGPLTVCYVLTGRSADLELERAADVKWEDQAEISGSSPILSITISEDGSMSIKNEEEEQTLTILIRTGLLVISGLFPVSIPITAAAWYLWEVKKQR
# Sequence (P29990 1476-2093 limits assumed): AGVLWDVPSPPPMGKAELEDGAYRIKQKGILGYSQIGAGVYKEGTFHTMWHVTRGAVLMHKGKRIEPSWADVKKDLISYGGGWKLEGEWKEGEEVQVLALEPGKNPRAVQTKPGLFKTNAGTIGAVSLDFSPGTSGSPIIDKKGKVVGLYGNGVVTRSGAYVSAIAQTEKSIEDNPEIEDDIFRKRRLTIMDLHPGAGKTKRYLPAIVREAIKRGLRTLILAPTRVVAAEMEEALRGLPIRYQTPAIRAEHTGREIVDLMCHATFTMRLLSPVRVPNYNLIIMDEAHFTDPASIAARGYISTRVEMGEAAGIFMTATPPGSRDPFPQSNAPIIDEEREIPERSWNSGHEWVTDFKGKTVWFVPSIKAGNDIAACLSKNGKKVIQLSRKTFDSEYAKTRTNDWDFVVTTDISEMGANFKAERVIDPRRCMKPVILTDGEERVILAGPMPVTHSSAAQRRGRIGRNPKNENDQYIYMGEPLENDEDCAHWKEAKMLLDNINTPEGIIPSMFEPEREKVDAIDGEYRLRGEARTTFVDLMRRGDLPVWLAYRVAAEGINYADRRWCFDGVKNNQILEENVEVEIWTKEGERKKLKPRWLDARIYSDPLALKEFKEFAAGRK
# Type: functional, Thailand/16681/1984
pIC50: −log10 of the molar value.
VALUE TYPE: pIC50

Field: example entries. Status: answers known.
// field: pIC50; key: `CC1(N2CCC(NS(=O)(=O)c3ccc(Cl)cc3C(=O)O)CC2)CCCCC1` ; value = < 4.00

// field: pIC50; key: `O=C(Nc1cc(-c2cccnc2)ccn1)c1cc(C2CC2)on1` ; value = < 4.00

// field: pIC50; key: `NCc1cccc(NC(=O)[C@H](NC(=O)OCc2ccccc2)c2cccc(C3=CCCOC3)c2)c1` ; value = < 4.00

// field: pIC50; key: `CC(=O)N(c1ccc2c(c1)CNC2)[C@]1(c2cc(Cl)cc(C3CC3)c2)CN(C)C1=O` ; value = < 4.00

// field: pIC50; key: `CN(C)CCOc1ccc(Cl)cc1C(=O)Nc1cccc(CN)c1` ; value = < 4.00

---
// field: pIC50; key: `CC(C)Oc1cncc(N2CC[C@@H](CO)C2)c1` ; value = < 4.00

// field: pIC50; key: `N#C[C@H](Nc1ccc2c(c1)CNC2)c1cncc2ccccc12` ; value = < 4.00

// field: pIC50; key: `O=C(Nc1cc(Cl)cc([C@H]2C[C@@H]2c2cccc(-c3nnn[nH]3)c2)c1)OCc1ccccc1` ; value = 4.79

// field: pIC50; key: `COC(=O)c1cc(Cl)ccc1NS(=O)(=O)c1ccc(Oc2ccccc2Cl)cc1` ; value = < 4.00

// field: pIC50; key: `NCc1ccnc(CNC(=O)[C@@H](NC(=O)OCc2ccccc2)c2ccc(OCc3ccccc3)cc2)c1` ; value = < 4.00
